experimental_target: T1, hDPEP3-ECD-His (human, UniProt Q9H4B8 36-463)
T1 construct: also called hDPEP3-His; monomeric hDPEP3-His antigen; not shown: histidine tag
T1 sequence: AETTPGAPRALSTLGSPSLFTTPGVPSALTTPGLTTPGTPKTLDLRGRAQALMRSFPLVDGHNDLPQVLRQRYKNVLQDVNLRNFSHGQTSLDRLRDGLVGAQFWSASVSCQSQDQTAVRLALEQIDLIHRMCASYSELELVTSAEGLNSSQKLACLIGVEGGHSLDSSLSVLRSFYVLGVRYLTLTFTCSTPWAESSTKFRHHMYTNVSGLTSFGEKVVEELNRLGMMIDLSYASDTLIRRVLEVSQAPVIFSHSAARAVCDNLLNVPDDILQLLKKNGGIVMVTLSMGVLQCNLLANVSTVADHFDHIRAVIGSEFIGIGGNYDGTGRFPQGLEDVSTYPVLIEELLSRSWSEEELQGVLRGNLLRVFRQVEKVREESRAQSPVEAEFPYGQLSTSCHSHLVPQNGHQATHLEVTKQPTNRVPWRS
assay_name: BLI ForteBio RED, 200 nM hDPEP3-His, estimated grade
metric: Kd

Query: What value of Kd has been reported for the following binder? SC34.41 (antibody, mouse IgG1, V domains shown) VH: EVKLVESGGGLVKPGGSLKLSCAASGFTFTSYTMSWVRQTPAKRLEWVATISTGGGNTYYPDIVKGRFTISRDNARSTLYLQMSSLRSEDSAMYYCARRFYDGSYNYWYFDVWGAGTTVTVSS VL: DIQMIQSPSSMFASLGDRVSLSCRASQGIRGNLDWYQQKPGGTIKLLIYSTSNLNSGVPSRFSGSGSGSDYSLTISSLESEDFADYYCLQRDAYPYTFGGGTKLEIK
Reply: > 10 nM
